# System: HCC-2998 colon
# TEST: NCI-60 one-dose screen, 48 h (100 = growth as untreated, 0 = no growth, -100 = all killed)
# SETTINGS: 10 µM
This is part of a sample that, as a whole, favours compounds with a hit. Of some 83,000 tested, about 20% had one in any assay.
ENDPOINT: growth (%)
Give a bare numeral; the unit % is implied.

| COMPOUND | growth (%) |
| --- | --- |
| COc1cc(CN)ccc1O | 86.3 |
| O=c1[nH]nc(SC2CCCCC2)c(=O)[nH]1 | 92 |
| C=CCNc1nnc(C)s1 | 112 |
| CC(C)=C(NC(=O)c1ccccc1)C(=O)O | 101 |
| COC(=O)C(O)c1ccccc1 (centres undefined) | 104 |
| CCOC(=O)/C(C#N)=C/c1cccc(C)c1 | 102 |
| COc1ccc(C2(O)CCCCC2)cc1 | 104 |
| O=C(O)CCCCNC(=O)c1ccccc1 | 94.3 |

Item under review: CCCC[P+](c1ccccc1)(c1ccccc1)c1ccccc1 . Reported growth?
32.2

Item under review: CCC(C)(O)c1ccc(C)cc1 (centres undefined) . Reported growth?
105

Item under review: CCN=c1cc2sc3cc(NCC)c(C)cc3nc-2cc1C . Reported growth?
30.7

Item under review: CS(=O)CC1=NC(=N)N=C1CS(C)=O (centres undefined) . Reported growth?
104

Item under review: c1ccc(CN2COc3c(ccc4c3OCN(Cc3ccccc3)C4)C2)cc1 . Reported growth?
-14.5

---

Listed below: growth values for each entry.
# Tested on: COLO 205 colon
# TEST: NCI-60 one-dose screen, 48 h (100 = growth as untreated, 0 = no growth, -100 = all killed)
# SETTINGS: 10 µM
The panel holds about 83,000 compounds, 20% with a hit somewhere; the sample as a whole holds those more often.
Give a bare numeral; the unit % is implied.

Here is how some compounds turned out for growth.
| COMPOUND | UNIT SPEC | growth |
| --- | --- | --- |
| C=CC(O)CCC (stereo not given) | % | 119 |
| CC1(C(=O)O)NC(C(=O)O)Cc2c1[nH]c1ccccc21 (stereo not given) | % | 104 |
| COCCCNC(=O)c1nnn2c1nc(N)c1cc(Cl)ccc12 | % | 77.7 |
| O=P(O)(O)OCC(O)CO (stereo not given) | % | 110 |
| NC(=S)NN=C1CCCC1 | % | 101 |

Item under review: Cc1cccc(CO)c1 . Reported growth?
105

Item under review: c1cc[n+](C2c3ccccc3C([n+]3ccccc3)c3ccccc32)cc1 (stereo not given) . Reported growth?
30.8

Item under review: CCCCCCCCCCC(C)Br (stereo not given) . Reported growth?
110

Item under review: Cc1cc(=O)[nH]c(NN=C2CCCC2)n1 . Reported growth?
118

Item under review: CCOc1ccc(I)cc1 . Reported growth?
111

Item under review: OCCN1CCOCC1 . Reported growth?
119

Item under review: Oc1ccc(O)cc1 . Reported growth?
112

Item under review: CC(C)(C)n1nc(C2CC2)c(Br)c1NC(=O)c1ccccc1F . Reported growth?
104

Item under review: COc1ccc(C(=O)C(Br)C(Br)C(=O)O)cc1 (stereo not given) . Reported growth?
110

Item under review: N#Cc1ccc(NC(=O)Nc2cccc(C#N)c2)cc1 . Reported growth?
160
